- ASSAY_PROCEDURE: chemical genetic growth profiling, strain panel (AID 1159580);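 also: tested at 20 µM; growth read once vehicle control cultures reached saturation at 30 °C; 1 = growth at the plate median or of vehicle wells; lower values mean less growth of the strain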
- RUN_CONDITIONS: S. cerevisiae deletion strains, growth OD, locus YER110C
The whole screen tested about 5,500 compounds, of which about 2,000 (36%) were called active. Not shown: some 18% with an inconclusive outcome. Rule as the data show it: active = normalized growth mostly below about 0.91 (no sharp cut-off); inconclusive = no clear call, values can overlap the other calls; inactive = mostly above about 0.92. This is one part of the list.
Possible outcomes: active, inactive

INSERT INTO results (compound, assigned_class) VALUES
  ('C=CC(C1=CC(=O)C(OC)=CC1=O)c1ccc(O)cc1 (stereo not given)', 'inactive'),
  ('Oc1c(Br)cc(Br)c2cccnc12', 'active'),
  ('C=CC(C1=CC(=O)C(OC)=CC1=O)c1ccccc1 (stereo not given)', 'inactive'),
  ('C=CC(C1=CC(=O)C=CC1=O)c1ccccc1 (stereo not given)', 'inactive'),
  ('C=C[C@@H](C1=CC(=O)C(OC)=C(OC)C1=O)c1ccccc1', 'inactive'),
  ('Cc1c(O)c(O)cc2c1CC=C1[C@@]2(C)CC[C@@]2(C)C3C[C@](C)(C(=O)O)CC[C@]3(C)CC[C@]12C (stereo not given in full)', 'inactive'),
  ('Nc1nc2c(ncn2C2C[C@H](O)[C@@H](CO)O2)c(=O)[nH]1 (stereo not given in full)', 'active'),
  ('Oc1c(Cl)cc(Cl)c2cccnc12', 'active'),
  ('C=CC(C1=CC(=O)C(OC)=CC1=O)c1ccc(OC)cc1 (stereo not given)', 'inactive'),
  ('CC(=O)O[C@H]1C[C@@H](OC(C)=O)C(C)(C)C2C[C@@H](OC(C)=O)[C@@]3(C)C4=CC(=O)O[C@@H](c5ccoc5)[C@]4(C)CCC3[C@]21C (stereo not given in full)', 'inactive');

###

- ASSAY_PROCEDURE: chemical genetic growth profiling, strain panel (AID 1159580);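 also: tested at 20 µM; growth read once vehicle control cultures reached saturation at 30 °C; 1 = growth at the plate median or of vehicle wells; lower values mean less growth of the strain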
- RUN_CONDITIONS: S. cerevisiae deletion strains, growth OD, locus YNL153C, strain GIM3, hits give low values
Hit rate of the full screen: of about 5,500 compounds, about 2,000 (36%) were called active. Roughly 18% stayed inconclusive and do not appear here. This is one part of the list.
MEASURED_ENDPOINT: normalized growth

INSERT INTO assay_data (molecule, test_value) VALUES
  ('CCCC(C)C1(CC)C(=O)NC(=O)NC1=O (stereo not drawn)', 1),
  ('COc1ccc(-c2c(C)nc3ccc(Cl)cc3c2-c2ccccc2)cc1OC', 0.972),
  ('O=C(N/N=C\C=C\c1ccccc1)c1ccccc1-n1cccc1', 1),
  ('C=CCC1(C(C)CCC)C(=O)N=C(S)NC1=O (stereo not drawn)', 1.03),
  ('Cc1ccc2cc3c(ccc4ccccc43)c3c2c1CC3', 1.03),
  ('CCCCC1=NC2(CCCC2)C(=O)N1Cc1ccc(-c2ccccc2-c2nn[nH]n2)cc1', 1.03),
  ('CC(=O)c1c(O)c(C)c(O)c2c1OC1=CC(=O)C(C(C)=O)C(=O)C12C (stereo not drawn)', 1.01),
  ('c1ccc2c(c1)cc1ccc3cccc4ccc2c1c34', 1.02),
  ('CC(=O)Oc1ccc(Cl)c2cccnc12', 0.048),
  ('COc1cc(C2N=C(c3ccc(Cl)cc3)SC(c3ccc(Cl)cc3)=N2)cc(OC)c1OC', 1.01),
  ('CC1(C)C(=O)C=CC2(C)C3CCC4(C)C(c5ccoc5)CC5OC54C3C(O)CC12 (stereo not drawn)', 0.983),
  ('O=C(O)/C=C/c1cnc[nH]1', 1.03),
  ('O=S(=O)(N/N=C\c1ccc(Cl)cc1)c1ccc(-c2ccccn2)s1', 0.976);
